src = ChEMBL document CHEMBL4406882

# experiment-notes: Selectivity index, ratio of IC50 for human HepG2 cells to MIC90 for methicillin-resistant Staphylococcus aureus ATCC 700699
# Assay type: toxicity
# condition-info: read-out: Selectivity Index
value-type: selectivity ratio
Lab note: jot the number down without any unit.

selectivity ratio for `CC(C)=CCC/C(C)=C/Cc1c(O)ccc(C(=O)/C=C/c2ccc(O)cc2)c1O` is 10.3

###

# experiment-notes: Cytotoxicity against human THP1 cells assessed as reduction in cell viability incubated for 48 hrs by resazurin reagent based assay
# Design: species or system THP-1
# condition-info: human, THP1 cells
value-type: IC90 at 48 h (µM)
Answer format: numeric, µM implied, no suffix.

What the record says about `CC(C)=CCC/C(C)=C/Cc1c(O)ccc(C(=O)/C=C/c2ccc(O)cc2)c1O` : IC90 at 48 h is 39.1

###

# experiment-notes: Cytotoxicity against human MRC5 cells assessed as reduction in cell viability incubated for 48 hrs by resazurin reagent based assay
# condition-info: human, MRC5 cells
value-type: IC90 at 48 h (µM)
Entry rule: numbers only, all in µM.

Record `CC(C)=CCC/C(C)=C/Cc1c(O)ccc(C(=O)/C=C/c2ccc(O)cc2)c1O` . Reported IC90 at 48 h: 27.6

###

# experiment-notes: Cytotoxicity against human CLS54 cells assessed as reduction in cell viability incubated for 48 hrs by resazurin reagent based assay
# condition-info: human, CLS54 cells
value-type: IC90 at 48 h

Sure, the documented IC90 at 48 h for `CC(C)=CCC/C(C)=C/Cc1c(O)ccc(C(=O)/C=C/c2ccc(O)cc2)c1O` is 85.8 µM

###

# experiment-notes: Selectivity index, ratio of IC50 for human CLS54 cells to MIC90 for methicillin-resistant Staphylococcus aureus ATCC 700699
# Format: toxicity
# condition-info: read-out: Selectivity Index
value-type: selectivity ratio
Reply briefly: the number, and no unit.

For `CC(C)=CCC/C(C)=C/Cc1c(O)ccc(C(=O)/C=C/c2ccc(O)cc2)c1O` the compound record lists selectivity ratio as 44.2

###

# experiment-notes: Cytotoxicity against human HEK293 cells assessed as reduction in cell viability incubated for 48 hrs by resazurin reagent based assay
# condition-info: human, HEK293 cells
value-type: IC90 at 48 h (µM)
Form entry: value (µM) — number only.

The molecule `CC(C)=CCC/C(C)=C/Cc1c(O)ccc(C(=O)/C=C/c2ccc(O)cc2)c1O` showed IC90 at 48 h equal to 44.8

###

# experiment-notes: Cytotoxicity against human HepG2 cells assessed as reduction in cell viability incubated for 48 hrs by resazurin reagent based assay
# condition-info: human, HepG2 cells
value-type: IC90 at 48 h (µM)
All answers are understood in µM, so give the number only.

Recorded result, `CC(C)=CCC/C(C)=C/Cc1c(O)ccc(C(=O)/C=C/c2ccc(O)cc2)c1O` , IC90 at 48 h: 37.4

###

# experiment-notes: Selectivity index, ratio of IC50 for human THP1 cells to MIC90 for methicillin-resistant Staphylococcus aureus ATCC 700699
# Type: toxicity
# condition-info: read-out: Selectivity Index
value-type: selectivity ratio
Lab note: write the figure by itself, no unit.

What the record says about `CC(C)=CCC/C(C)=C/Cc1c(O)ccc(C(=O)/C=C/c2ccc(O)cc2)c1O` : selectivity ratio is 17.7

###

# experiment-notes: Cytotoxicity against human CLS54 cells assessed as reduction in cell viability incubated for 48 hrs by resazurin reagent based assay
# condition-info: Homo sapiens, 48 h
value-type: pIC50
Units for pIC50: none; it is -log10 of a concentration expressed in mol/L.

Just so you know, measured pIC50 for CC(C)=CCC/C(C)=C/Cc1c(O)ccc(C(=O)/C=C/c2ccc(O)cc2)c1O [XANTHOANGELOL] came out at 4.23
